- targetDesc: T1, Anti-CD28 Fab (SEQ ID NOs: 696, 697)
- T1 construct: Biotinylated Fab captured on neutravidin coated plates in the phage ELISA
- T1 sequence (VH, as listed by the source, chain 1 of 2): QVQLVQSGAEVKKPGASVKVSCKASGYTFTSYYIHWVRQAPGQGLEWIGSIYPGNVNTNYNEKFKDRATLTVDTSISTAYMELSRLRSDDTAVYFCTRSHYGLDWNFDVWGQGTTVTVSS
- T1 sequence (VL, as listed by the source, chain 2 of 2): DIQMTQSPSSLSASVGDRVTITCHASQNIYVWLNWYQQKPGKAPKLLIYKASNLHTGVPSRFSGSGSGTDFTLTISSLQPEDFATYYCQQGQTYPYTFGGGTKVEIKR
- assayNotes: phage ELISA; biotinylated anti-CD28 Fab on neutravidin plate, bound phage detected with anti-M13 HRP antibody
Kindly supply the reported Anti-CD28 Fab signal (phage binding ELISA) values for the records listed here.
# respond with the number and nothing more

The recorded Anti-CD28 Fab signal (phage binding ELISA) for entry YCDGHSWEYIQKCL (Position 10 is printed as '--' and was read as unchanged (I); not shown: fused to the pIII filament protein of the bacteriophage) [Phage-776] equals 1.88

// field: Anti-CD28 Fab signal (phage binding ELISA); key: YCEGHTSEYMNKCL (not shown: fused to the pIII filament protein of the bacteriophage) [Phage-785] ; value = 1.87

For reference, reported Anti-CD28 Fab signal (phage binding ELISA) for YCEGHSPLYMSKCL (not shown: fused to the pIII filament protein of the bacteriophage) [Phage-781] stands at 1.87

Consider YCDGHLAMYMDKCL (not shown: fused to the pIII filament protein of the bacteriophage) [Phage-787] . Its measured Anti-CD28 Fab signal (phage binding ELISA) is 1.86

Summary for this binder, YCDGHSALYMSKCL (not shown: fused to the pIII filament protein of the bacteriophage) [Phage-783] : Anti-CD28 Fab signal (phage binding ELISA) is 1.87
